# ASSAYED TARGET: human CA-II (Homo sapiens)
# Construct: purchased Sigma-Aldrich C6165
# ASSAY DETAILS: Carbonic Anhydrase-II (CA-II) Fluorimetric Assay-IC50 Determination
# Type: biochemical
# MEASUREMENT PARAMETERS: read-out: CA-II % at 100 nM

| COMPOUND | inhibition at 0.1 µM (%) |
| --- | --- |
| CC(=O)N1CCCN(C(=O)c2nc(Cc3ccccc3)n(-c3ccc(S(N)(=O)=O)cc3)n2)CC1 [Example R-18] | 98 |
| CCCCCN(CCO)C(=O)c1nc(Cc2ccccc2)n(-c2ccc(S(N)(=O)=O)cc2)n1 [Example R-16] | 100 |
| NS(=O)(=O)c1ccc(-n2nc(C(=O)NCC3(c4ccccc4)CC3)nc2Cc2ccccc2)cc1 [Example R-12] | 101 |
| NS(=O)(=O)c1ccc(-n2nc(C(=O)N3CC(Oc4ccccc4)C3)nc2Cc2ccccc2)cc1 [Example R-15] | 96 |
| CCCCN(CC)C(=O)c1nc(Cc2ccccc2)n(-c2ccc(S(N)(=O)=O)cc2)n1 [Example R-14] | 100 |
| CN(CC(O)c1ccccc1)C(=O)c1nc(Cc2ccccc2)n(-c2ccc(S(N)(=O)=O)cc2)n1 (centres unmarked) [Example R-9] | 99 |
| NS(=O)(=O)c1ccc(-n2nc(C(=O)N3CC4CCC3C4)nc2Cc2ccccc2)cc1 (centres unmarked) [Example R-8] | 99 |
| CN(CCC#N)C(=O)c1nc(Cc2ccccc2)n(-c2ccc(S(N)(=O)=O)cc2)n1 [Example R-10] | 99 |

###

# ASSAYED TARGET: human CA-XII (Homo sapiens)
# Construct: made in house; host or cells: Escherichia coli AD494 (DE3)
# Sequence (O43570 30-289 limits assumed): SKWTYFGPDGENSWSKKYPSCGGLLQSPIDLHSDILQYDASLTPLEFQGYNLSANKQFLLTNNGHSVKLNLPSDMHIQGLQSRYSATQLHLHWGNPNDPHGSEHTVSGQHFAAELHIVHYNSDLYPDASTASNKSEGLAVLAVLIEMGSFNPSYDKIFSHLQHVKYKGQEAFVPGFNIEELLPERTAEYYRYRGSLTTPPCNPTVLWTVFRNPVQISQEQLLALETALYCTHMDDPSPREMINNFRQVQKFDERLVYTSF
# ASSAY DETAILS: Carbonic Anhydrase-XII (CA-XII) Fluorimetric Assay-IC50 Determination
# Format: biochemical
# MEASUREMENT PARAMETERS: read-out: CAXII IC 50

| COMPOUND | IC50, nM |
| --- | --- |
| CCOC(=O)c1cc(C)n(-c2ccc(S(N)(=O)=O)cc2)n1 [GG-1] | 896 |

###

# ASSAYED TARGET: human CA-II (Homo sapiens, UniProt P00918)
# Construct: purchased Sigma-Aldrich C6165
# ASSAY DETAILS: Carbonic Anhydrase-II (CA-II) Fluorimetric Assay-IC50 Determination
# Assay type: biochemical
# MEASUREMENT PARAMETERS: given instead of Kd (ND); read-out: CA-II IC50
IC50: recorded values

| COMPOUND | IC50 |
| --- | --- |
| NS(=O)(=O)c1ccc(-n2nc(C(=O)N3CC4CCCC3C4)nc2Cc2ccccc2)cc1 (stereo not drawn) [Example R-26] | 2.84 nM |
| NS(=O)(=O)c1ccc(-n2nc(C(=O)N3CCCC(c4cc[nH]n4)C3)nc2Cc2ccccc2)cc1 (stereo not drawn) [Example R-67] | 3.72 nM |
| CCc1ccc(CN(C)C(=O)c2nc(Cc3ccccc3)n(-c3ccc(S(N)(=O)=O)cc3)n2)cc1 [Example R-37] | 2.89 nM |

###

# ASSAYED TARGET: human CA-IV (Homo sapiens)
# Construct: made in house; host or cells: Escherichia coli BL21(DE3)
# Sequence (P22748 19-284 limits assumed): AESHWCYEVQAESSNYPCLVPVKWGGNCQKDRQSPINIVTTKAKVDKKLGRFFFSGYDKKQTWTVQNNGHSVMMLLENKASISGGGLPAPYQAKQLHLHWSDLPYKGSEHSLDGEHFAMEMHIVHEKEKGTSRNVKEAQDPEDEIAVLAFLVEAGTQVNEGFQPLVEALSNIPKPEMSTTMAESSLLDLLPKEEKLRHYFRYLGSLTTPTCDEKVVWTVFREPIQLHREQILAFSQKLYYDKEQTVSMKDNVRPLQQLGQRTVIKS
# ASSAY DETAILS: Carbonic Anhydrase-IV (CA-IV) Fluorescence Polarization Assay-IC50 Determination
# Type: binding
# MEASUREMENT PARAMETERS: Min dose 200 nM; read-out: CA-IV: % Inh @ Min dose
inhibition at 0.2 µM: recorded values
QUANTITY MEASURED: inhibition at 0.2 µM

| MOL SMILES | REPORTED MEASUREMENT |
| --- | --- |
| Cc1ccccc1Cn1cc(C(F)(F)F)nc1-c1ccc(S(N)(=O)=O)cc1 | 36% |
| Cc1cc(Cn2cc(C(F)(F)F)nc2-c2ccc(S(N)(=O)=O)cc2)ccc1F | 45% |
| NS(=O)(=O)c1ccc(-c2nc(C(F)(F)F)cn2Cc2cccc(OC(F)F)c2)cc1 | 29% |
| Cc1ccc(C)c(Cn2cc(C(F)(F)F)nc2-c2ccc(S(N)(=O)=O)cc2)c1 | 56% |

###

# ASSAYED TARGET: human CA-II (Homo sapiens)
# Construct: purchased Sigma-Aldrich C6165
# ASSAY DETAILS: Carbonic Anhydrase-II (CA-II) Fluorimetric Assay-IC50 Determination
# Format: biochemical
# MEASUREMENT PARAMETERS: Kd ND, IC50 given instead; read-out: CA-II IC50 (where Kd is ND)
pIC50: −log10 of the molar value.
pIC50: recorded values

| COMPOUND | pIC50 |
| --- | --- |
| N#CCCN(C(=O)c1nc(Cc2ccccc2)n(-c2ccc(S(N)(=O)=O)cc2)n1)C1CCCC1 | 8.46 |
| CN(CC1CCCCO1)C(=O)c1nc(Cc2ccccc2)n(-c2ccc(S(N)(=O)=O)cc2)n1 (stereo not drawn) | 8.48 |
| CCCN(CC1CCCO1)C(=O)c1nc(Cc2ccccc2)n(-c2ccc(S(N)(=O)=O)cc2)n1 (stereo not drawn) | 8.47 |
| CN(Cc1ccccc1)C(=O)c1nc(Cc2ccccc2)n(-c2ccc(S(N)(=O)=O)cc2)n1 | 8.44 |
| NS(=O)(=O)c1ccc(-n2nc(C(=O)N3C[C@@H](F)[C@H](F)C3)nc2Cc2ccccc2)cc1 | 8.50 |
| CN(CC(F)(F)F)C(=O)c1nc(Cc2ccccc2)n(-c2ccc(S(N)(=O)=O)cc2)n1 | 8.46 |
| CC(C)(C)N(CCC#N)C(=O)c1nc(Cc2ccccc2)n(-c2ccc(S(N)(=O)=O)cc2)n1 | 8.48 |
| CCN(Cc1ccccc1)C(=O)c1nc(Cc2ccccc2)n(-c2ccc(S(N)(=O)=O)cc2)n1 | 8.52 |
| CC(C)C1CCCCN1C(=O)c1nc(Cc2ccccc2)n(-c2ccc(S(N)(=O)=O)cc2)n1 (stereo not drawn) | 8.45 |
| NS(=O)(=O)c1ccc(-n2nc(C(=O)N3CC(Cc4ccccc4)C3)nc2Cc2ccccc2)cc1 | 8.50 |
| CC(C)C1(CO)CCN(C(=O)c2nc(Cc3ccccc3)n(-c3ccc(S(N)(=O)=O)cc3)n2)CC1 | 8.46 |
| COc1cccc(CN(C)C(=O)c2nc(Cc3ccccc3)n(-c3ccc(S(N)(=O)=O)cc3)n2)c1 | 8.51 |

###

inhibition at 0.1 µM: recorded values
# ASSAYED TARGET: human CA-II (Homo sapiens, UniProt P00918)
# Construct: purchased Sigma-Aldrich C6165
# ASSAY DETAILS: Carbonic Anhydrase-II (CA-II) Fluorimetric Assay-IC50 Determination
# Type: biochemical
# MEASUREMENT PARAMETERS: CA II Min dose 100 nM; read-out: CAII % Inh @ Min dose

| COMPOUND | inhibition at 0.1 µM / % |
| --- | --- |
| NS(=O)(=O)c1ccc(-n2nc(C(=O)N3CCCCC3)nc2Cc2ccccc2)cc1 | 99 |
| NS(=O)(=O)c1ccc(-n2nc(C(=O)NCc3n[nH]c4c3CCC4)nc2Cc2ccccc2)cc1 | 99 |
| CN(C)[C@H]1CCN(C(=O)c2nc(Cc3ccccc3)n(-c3ccc(S(N)(=O)=O)cc3)n2)C1 | 99 |
| NS(=O)(=O)c1ccc(-n2nc(C(=O)N3CC(Oc4ccccc4)C3)nc2Cc2ccccc2)cc1 | 96 |
| CN(CC1CC1)C(=O)c1nc(Cc2ccccc2)n(-c2ccc(S(N)(=O)=O)cc2)n1 | 100 |
| N#CCCN(C(=O)c1nc(Cc2ccccc2)n(-c2ccc(S(N)(=O)=O)cc2)n1)C1CC1 | 100 |
| COC[C@H](C)NC(=O)c1nc(Cc2ccccc2)n(-c2ccc(S(N)(=O)=O)cc2)n1 | 100 |
| CCCCN(C)C(=O)c1nc(Cc2ccccc2)n(-c2ccc(S(N)(=O)=O)cc2)n1 | 101 |
| CN(CC(O)c1ccccc1)C(=O)c1nc(Cc2ccccc2)n(-c2ccc(S(N)(=O)=O)cc2)n1 (stereo not drawn) | 99 |
| NS(=O)(=O)c1ccc(-n2nc(C(=O)NCC3(c4ccccc4)CC3)nc2Cc2ccccc2)cc1 | 101 |
| CCCN(CC1CC1)C(=O)c1nc(Cc2ccccc2)n(-c2ccc(S(N)(=O)=O)cc2)n1 | 100 |
| COc1cccc(CNC(=O)c2nc(Cc3ccccc3)n(-c3ccc(S(N)(=O)=O)cc3)n2)c1 | 100 |
| NS(=O)(=O)c1ccc(-n2nc(C(=O)N3CC4CCC3C4)nc2Cc2ccccc2)cc1 (stereo not drawn) | 99 |
| CCCCCN(C)C(=O)c1nc(Cc2ccccc2)n(-c2ccc(S(N)(=O)=O)cc2)n1 | 100 |
| CCN(CCCCO)C(=O)c1nc(Cc2ccccc2)n(-c2ccc(S(N)(=O)=O)cc2)n1 | 99 |

Where these numbers come from: patent US20100256357A1
